Attribution: ChEMBL document CHEMBL1153478

target: Melanin-concentrating hormone receptor 1 (Homo sapiens); assay: Antagonist activity at human MCH1 receptor expressed in CHO cells assessed as inhibition of MCH-induced intracellular calcium level by FLIPR assay; type: functional, cell-based
pIC50: −log10 of the molar value.
observed.property: pIC50

Here's what some known entries look like.
Req: For the compound shown here, Cc1c(C2CC2)nc2ccc(NC(=O)c3ccc(-c4ccc(F)nc4)cc3)cn12 , give the reported pIC50.
Resp: 7.70

Req: pIC50 for Cc1c(C2CC2)nc2ccc(NC(=O)c3ccc(-c4ccc(C(F)(F)F)nc4)cc3)cn12 ?
Resp: 6.96

Req: Form field: reported pIC50 of Cc1c(C2CC2)nc2ccc(NC(=O)c3ccc(-c4ccc(F)cn4)cc3)cn12
Resp: 7.05

a = Cc1c(C2CC2)nc2ccc(NC(=O)c3ccc(-c4ccc(Cl)cn4)cc3)cn12
b = Cc1c(C2CC2)nc2ccc(NC(=O)c3ccc(-c4ccc(F)cc4)cn3)cn12
c = Cc1c(C2CC2)nc2ccc(NC(=O)c3ccc(-c4ccc(C(F)(F)F)cn4)cc3)cn12
Req: Arrange the 3 entries by pIC50 so the values rise. # answer = labels listed in requested order
Resp: c, a, b

* * *

target: Melanin-concentrating hormone receptor 1 (Homo sapiens, UniProt Q99705); experiment: Displacement of [125I]MCH from human MCH1 receptor
Sequence (Q99705 whole entry): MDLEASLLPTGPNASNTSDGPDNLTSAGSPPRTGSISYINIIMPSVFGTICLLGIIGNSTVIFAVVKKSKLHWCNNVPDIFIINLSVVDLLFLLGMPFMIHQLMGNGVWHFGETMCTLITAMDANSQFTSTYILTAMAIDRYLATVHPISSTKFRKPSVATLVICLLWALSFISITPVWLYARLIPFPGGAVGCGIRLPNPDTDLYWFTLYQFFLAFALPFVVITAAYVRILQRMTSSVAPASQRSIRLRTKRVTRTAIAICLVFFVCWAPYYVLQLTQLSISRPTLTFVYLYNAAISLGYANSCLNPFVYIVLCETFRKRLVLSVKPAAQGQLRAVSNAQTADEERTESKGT
observed.property: IC50 (nM)

Req: Fill blank: measured IC50 of the compound CC(=O)c1c(C2CC2)nc2ccc(NC(=O)c3ccc(-c4ccc(C(F)(F)F)cc4)cc3)cn12 is ____.
Resp: 320

Req: // query IC50 value for entry Cc1c(C2CC2)nc2ccc(NC(=O)c3ccc(-c4ccc(F)cc4)nc3)cn12
Resp: 4

Req: So what does the record say about IC50 for Cc1cn2cc(NC(=O)c3ccc(-c4ccc(C(F)(F)F)cc4)cc3)ccc2n1 ?
Resp: 4.6

Req: IC50 lookup needed for Cc1c(C2CC2)nc2ccc(NC(=O)c3ccc(-c4ccc(C(F)(F)F)cn4)cc3)cn12 , thanks.
Resp: 3.5

Req: Query (compound): CC(C)c1cn2cc(NC(=O)c3ccc(-c4ccc(C(F)(F)F)cc4)cc3)ccc2n1 ; field requested: IC50
Resp: 5.4

P = Cc1c(C2CC2)nc2ccc(NC(=O)c3ccc(-c4ccc(F)cn4)cc3)cn12
Q = O=C(Nc1ccc2nc(CO)cn2c1)c1ccc(-c2ccc(C(F)(F)F)cc2)cc1
Req: Lowest IC50? choose P or Q Mark your selection by writing its label.
Resp: P

* * *

biological target: Melanin-concentrating hormone receptor 1 (Homo sapiens); test: Displacement of [125I]MCH from human MCH1 receptor
pIC50: −log10 of the molar value.
observed.property: pIC50

Solved entries (count: 10):
Req: Item under review: CCCc1cn2cc(NC(=O)c3ccc(-c4ccc(C(F)(F)F)cc4)cc3)ccc2n1 . Reported pIC50?
Resp: 7.96

Req: What value of pIC50 has been recorded for this entry: Cc1c(C2CC2)nc2ccc(NC(=O)c3ccc(-c4ccc(Cl)cn4)cc3)cn12
Resp: 8.66

Req: Recorded pIC50 for Cc1c(C2CC2)nc2ccc(NC(=O)c3ccc(-c4ccc(C(F)(F)F)cc4)cc3)cn12 , please?
Resp: 8.32

Req: Form field: reported pIC50 of Cc1c(C2CC2)nc2ccc(NC(=O)c3ccc(-c4ccc(F)nc4)cn3)cn12
Resp: 7.36

Req: What does the data say about its pIC50? Entry: COc1ccc(-c2ccc(C(=O)Nc3ccc4nc(C5CC5)c(C)n4c3)cc2)nc1
Resp: 8.22

Req: Reported pIC50, compound O=C(Nc1ccc2nc(C3CC3)cn2c1)c1ccc(-c2ccc(C(F)(F)F)cn2)cc1 : ____
Resp: 8.09

Req: Record request: pIC50 value, item CN(C)Cc1cn2cc(NC(=O)c3ccc(-c4ccc(C(F)(F)F)cc4)cc3)ccc2n1
Resp: 7.08

Req: Quick check: pIC50 of O=C(Nc1ccc2nc(C3CC3)c(C3CC3)n2c1)c1ccc(-c2ccc(C(F)(F)F)cc2)cc1 ?
Resp: 6.59

Req: // returns reported pIC50 for input CC(O)c1c(C2CC2)nc2ccc(NC(=O)c3ccc(-c4ccc(C(F)(F)F)cc4)cc3)cn12 (centres undefined)
Resp: 6.48

Req: What pIC50 value was documented for this compound, O=C(Nc1ccc2nc(C3CC3)cn2c1)c1ccc(-c2ccccn2)cc1 ?
Resp: 6.85

I = Cc1c(C2CC2)nc2ccc(NC(=O)c3ccc(-c4ccc(F)nc4)nc3)cn12
II = O=C(Nc1ccc2nc(C3CC3)c(CO)n2c1)c1ccc(-c2ccc(C(F)(F)F)cc2)cc1
III = Cc1c(C2CC2)nc2ccc(NC(=O)c3ccc(-c4ccc(C(F)(F)F)nc4)cc3)cn12
IV = CCc1c(C2CC2)nc2ccc(NC(=O)c3ccc(-c4ccc(C(F)(F)F)cc4)cc3)cn12
Req: Sort these compounds on pIC50 so the largest reading comes first. List labels; respect the requested ordering.
Resp: III, II, IV, I
(III: 8.40, II: 7.96, IV: 7.70, I: 7.21)

1 = CC(C)(O)c1cn2cc(NC(=O)c3ccc(-c4ccc(C(F)(F)F)cc4)cc3)ccc2n1
2 = CC(=O)N(C)Cc1cn2cc(NC(=O)c3ccc(-c4ccc(C(F)(F)F)cc4)cc3)ccc2n1
3 = Cc1ccc(-c2ccc(C(=O)Nc3ccc4nc(C5CC5)c(C)n4c3)cc2)nc1
4 = Cc1c(C2CC2)nc2ccc(NC(=O)c3ncc(-c4ccc(F)nc4)cn3)cn12
Req: # sort list by recorded pIC50, greatest to least Answer format: list of labels, ordered as asked.
Resp: 3, 1, 2, 4
(3: 8.32, 1: 7.77, 2: 7.46, 4: 6.99)

* * *

biological target: Melanin-concentrating hormone receptor 1 (Homo sapiens); experiment: Antagonist activity at human MCH1 receptor expressed in CHO cells assessed as inhibition of MCH-induced intracellular calcium level by FLIPR assay; assay type: functional, cell-based
observed.property: IC50 (nM)

Req: Data request, read-out IC50, for Cc1c(C2CC2)nc2ccc(NC(=O)c3cnc(-c4ccc(F)cc4)cn3)cn12
Resp: 70

I = Cc1c(C2CC2)nc2ccc(NC(=O)c3ccc(-c4ccccn4)cc3)cn12
II = Cc1c(C2CC2)nc2ccc(NC(=O)c3ncc(-c4ccc(F)nc4)cn3)cn12
III = Cc1c(C2CC2)nc2ccc(NC(=O)c3ccc(-c4ccc(F)cc4)nc3)cn12
Req: # rank by IC50, ascending (min first) Please write the labels in the order that was asked for.
Resp: I, III, II
(I: 26 nM, III: 94 nM, II: 164 nM)

* * *

assay: Plasma concentration in Sprague-Dawley rat at 10 mg/kg, po after 2 hrs; assay type: ADME, organism-based; parameters: dose 10 mg/kg, route oral
observed.property: concentration at 2 h (µM)

a = Cc1c(C2CC2)nc2ccc(NC(=O)c3ccc(-c4ccc(C(F)(F)F)cn4)cc3)cn12
b = Cc1c(C2CC2)nc2ccc(NC(=O)c3ccc(-c4ccc(F)nc4)cc3)cn12
Req: Pick one, a or b : lowest reported concentration at 2 h. Write down the label attached to your selection.
Resp: a
(a: 1.4 µM, b: 5 µM)

* * *

molecular target: Melanin-concentrating hormone receptor 1 (Homo sapiens, UniProt Q99705); test: Displacement of [125I]MCH from human MCH1 receptor
pIC50: −log10 of the molar value.
observed.property: pIC50

Some solved cases for reference:
Req: Request - read-out pIC50 | tested on Melanin-concentrating hormone receptor 1 (Homo sapiens, UniProt Q99705) | compound CC(O)c1cn2cc(NC(=O)c3ccc(-c4ccc(C(F)(F)F)cc4)cc3)ccc2n1 (configuration not stated)
Resp: 7.52

Req: Lab note: need pIC50 for Cc1c(C2CC2)nc2ccc(NC(=O)c3ncc(-c4ccc(F)cc4)cn3)cn12 on Melanin-concentrating hormone receptor 1 (Homo sapiens, UniProt Q99705), anyone have it?
Resp: 8.17

A = Cc1c(C2CC2)nc2ccc(NC(=O)c3ccc(-c4ccc(S(C)(=O)=O)cn4)cc3)cn12
B = Cc1c(C2CC2)nc2ccc(NC(=O)c3ccc(-c4ccc(F)nc4)cc3)cn12
C = O=C(Nc1ccc2nccn2c1)c1ccc(-c2ccc(C(F)(F)F)cc2)cc1
D = Cc1c(C2CC2)nc2ccc(NC(=O)c3ccc(-c4cnc(C(F)(F)F)nc4)cc3)cn12
E = Cc1c(C2CC2)nc2ccc(NC(=O)c3cnc(-c4ccc(F)cc4)cn3)cn12
Req: Hey, quick one: sort these by pIC50, largest value first please. The labels, placed in the requested order, form the answer.
Resp: E, B, A, D, C

* * *

molecular target: Melanin-concentrating hormone receptor 1 (Homo sapiens, UniProt Q99705); test: Antagonist activity at human MCH1 receptor expressed in CHO cells assessed as inhibition of MCH-induced intracellular calcium level by FLIPR assay; format: functional, cell-based
observed.property: IC50 (µM)

Req: Query IC50 on Melanin-concentrating hormone receptor 1 (Homo sapiens, UniProt Q99705) for Cc1ccc(-c2ccc(C(=O)Nc3ccc4nc(C5CC5)c(C)n4c3)cc2)nc1
Resp: 0.085

Req: Find the measured IC50: item Cc1c(C2CC2)nc2ccc(NC(=O)c3ccc(-c4ccc(F)nc4)cn3)cn12 , target or system Melanin-concentrating hormone receptor 1 (Homo sapiens, UniProt Q99705).
Resp: 0.121

Req: Query IC50 on Melanin-concentrating hormone receptor 1 (Homo sapiens, UniProt Q99705) for Cc1c(C2CC2)nc2ccc(NC(=O)c3ccc(-c4ccc(S(C)(=O)=O)cn4)cc3)cn12
Resp: 0.094
